biological target: Neu5Ac(a2-6)Gal(b1-4)GlcNAc(b1-6)[Gal(b1-3)]GalNAc; assay: glycan array binding signal (z-score within array); higher = stronger binding; details: glycan notation: IUPAC condensed, linker removed
The sample as a whole holds a higher share of the strongest signals than the screen did.
observation-type: glycan array binding signal (z-score)
Numbers only.

GET /value?item= XL-35 (Xenopus laevis) (protein) MLVHILLLLVTGGLSQSCDPVVIVASKNMVKQLDCDKFRNCKEIKDSNEEAQDGIYTLTSPDGISYQTFCDMTTNGGGWTLVASVHENNMAGKCTIGDRWSSQQGNRADYPEGDGNWANYNTFGSAGGATSDDYKNPGYYDIEAYNLGVWHVPNKTPLSVWRNSSLQRYRTTDGILFKHGGNLFSLYRIYPVKYGIGSCSKDSGPTVPVVYDLGSANLTASFYSPGFRSQFTPGYIQFRPINTEKAALALCPGMKMESCNVEHVCIGGGGYFPEADPRQCGDFAAYDFNGYGTKKFNSAGIEITEAAVLLFYL &field=glycan array binding signal (z-score) returns 0.356
